All values here come from PubChem BioAssay (EPA / NIEHS).

Assay: BSK_BT_PBMCCytotoxicity: PBMC Cytotoxicity Assessment in the BioMAP Diversity Plus: BT Assay (AID 2284225);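 further: PBMC viability measured by Alamar Blue dye reduction fluorescence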
Settings: primary human B cells with PBMC
The source made the active and inactive calls. How the source made its calls: active means hit-call score of the fitted dose curve at least 0.9, where 1 is the maximum; inactive means score below 0.9.
Permitted responses: active, inactive

{"chemical.string": "C=COC(=O)C(C)(C)CCCCCC", "class.name": "inactive"}
{"chemical.string": "COC1=CC(=O)C[C@@H](C)[C@]12Oc1c(Cl)c(OC)cc(OC)c1C2=O", "class.name": "inactive"}
{"chemical.string": "O=C1OC2(c3ccccc31)c1cc(I)c(O)c(I)c1Oc1c2cc(I)c(O)c1I", "class.name": "inactive"}
{"chemical.string": "O=C(O)CCC(F)(F)C(F)(F)C(F)(F)C(F)(F)C(F)(F)F", "class.name": "inactive"}
{"chemical.string": "C=CC(=O)OCCC(F)(F)C(F)(F)C(F)(F)C(F)(F)C(F)(F)C(F)(F)C(F)(F)C(F)(F)F", "class.name": "inactive"}
{"chemical.string": "CCOC(=O)CN[C@@H](C(=O)N1CC[C@H]1C(=O)NCc1ccc(/C(N)=N/O)cc1)C1CCCCC1", "class.name": "inactive"}
{"chemical.string": "O=C(NCc1ncc(C(F)(F)F)cc1Cl)c1c(Cl)cccc1Cl", "class.name": "inactive"}
{"chemical.string": "Cc1cccc2c1ccc1ccccc12", "class.name": "inactive"}
{"chemical.string": "O=S(=O)(O)C(F)(F)C(F)(F)C(F)(F)C(F)(F)C(F)(F)C(F)(F)C(F)(F)C(F)(F)C(F)(F)C(F)(F)F", "class.name": "inactive"}
{"chemical.string": "Clc1ccc(Nc2nnc(Cc3ccncc3)c3ccccc23)cc1", "class.name": "inactive"}

Called result for CN(Cc1cnc2nc(N)nc(N)c2n1)c1ccc(C(=O)N[C@@H](CCC(=O)O)C(=O)O)cc1 inactive

Hi, sorry to bother you, what did the test record for OCCN1CN(CCO)CN(CCO)C1 ? active

###

Target: human Retinoic Acid Receptor beta (RARb), RARB (gene 5915)
Assay: ATG_RARb_TRANS: Attagene TRANS-FACTORIAL HepG2 Assay for human Retinoic Acid Receptor beta (AID 2283004)
Inconclusive results are not listed. Active and inactive are the calls of the source. How the source made its calls: active means hit-call score of the fitted dose curve at least 0.9, where 1 is the maximum; inconclusive means response in the unintended direction; inactive means score below 0.9.
measurement.type: outcome

Known outcome results, listed for orientation:
{"compound": "CCCC=O", "outcome": "inactive"}
{"compound": "O=C1NS(=O)(=O)c2ccccc21", "outcome": "inactive"}
{"compound": "CC[N+](CC)(CC)Cc1ccccc1", "outcome": "inactive"}
{"compound": "C[C@]12CC[C@@H]3c4ccc(O)cc4CC[C@H]3[C@@H]1C[C@@H](O)[C@@H]2O", "outcome": "inactive"}
{"compound": "O=C1c2ccccc2C(=O)c2c(O)c(O)cc(O)c21", "outcome": "inactive"}

Please fill in: outcome reported for CCCCN(C)C = inactive

For reference, reported outcome for O=C1OC(=O)C(F)(F)C1(F)F stands at inactive

Item: CCOC(C)=O | outcome: inactive

Value of outcome reported for the compound C[N+](C)(CCCNS(=O)(=O)CCC(F)(F)C(F)(F)C(F)(F)C(F)(F)C(F)(F)C(F)(F)F)CC(=O)[O-] is inactive

The compound listed as c1cc2cccc3c4cccc5cccc(c(c1)c23)c54 shows outcome equal to inactive

Recorded outcome (compound c1ccc(CNc2ncnc3c2ncn3C2CCCCO2)cc1 (stereo not drawn) ): inactive

The compound listed as Clc1ccc2c(Cl)ccnc2c1 has a reported outcome of inactive

Entry NCCN , outcome reported as inactive
